test: Tmax in Sprague-Dawley rat at 10 mg/kg, po measured after 0.25 to 24 hrs by LC-MS/MS analysis; format: ADME, organism-based; details: in vivo, time 0.25-24 hrs
recorded-metric: Tmax (h)
Just the number please, in h, no unit attached.

COc1ccc2nc(C)c(O[C@@H]3C[C@H]4C(=O)N[C@]5(C(=O)NS(=O)(=O)C6(C)CC6)C[C@H]5/C=C/CCCCC[C@H](NC(=O)OC5(C(F)(F)F)CCCC5)C(=O)N4C3)nc2c1 ... 3

We now examine a further compound.
Lookup: Note Tmax for the compound shown: `COc1ccc2nc(C)c(O[C@@H]3C[C@H]4C(=O)N[C@]5(C(=O)NS(=O)(=O)C6(C)CC6)C[C@H]5/C=C/CCCCC[C@H](NC(=O)OC(C)(C)C)C(=O)N4C3)nc2c1`
Found: 1.4
